- METHOD: Half life in pH 7 buffer solution was determined
- Format: ADME
ASSAY ENDPOINT: half-life (h)

P. C[C@H]1[C@H](NC(=O)COc2ccccc2)C(=O)N1c1c([O-])c(=O)c1=O.[K+]
Q. O=C(COc1ccccc1)N[C@H]1CN(c2c([O-])c(=O)c2=O)C1=O.[K+]
-- ask Smaller half-life value, P vs Q ? Your answer should be the label attached to the chosen record.
-- reply Q
(Q: 72 h, P: 168 h)
